# protocol description: Pharmacokinetic test in rats (IV and PO)
# Type: in vivo
# measurement parameters: rat, plasma; SD rats, IV 1 mg/kg, PO 5 mg/kg
observed property: bioavailability

Check out these entries, answers already filled in.
COc1ccc(Cn2cc3c(n2)c(=O)n(-c2cccnc2)c2cc(Cl)ccc32)cc1 [Compound B28]	60%
O=c1c2n[nH]cc2c2cc(F)c(Cl)cc2n1-c1cccnc1C1CC1 [Compound B425]	116%
Cn1cc2c(n1)c(=O)n(-c1cccnc1)c1cc(Cl)ccc21 [Compound B12]	217%
Cn1cc2c(n1)c(=O)n(-c1cccc3[nH]ncc13)c1nc(C(F)(F)F)ccc21 [Compound B181]	90%
CCn1cc2c(n1)c(=O)n(-c1cccnc1)c1cc(Cl)ccc21 [Compound B3]	67%

Give reported bioavailability value for CCn1cc2c(n1)c(=O)n(-c1cccc(F)c1)c1cc(Cl)ccc21 [Compound B4] 68%

###

Measured IC50 of individual entries
# System: HCT116-MTAP wild-type (+/+)-cell strain
# protocol description: Tumor cell proliferation inhibition assay (CellTiter-Glo), HCT116-MTAP wild-type (+/+)
# Assay type: cell-based
# measurement parameters: Homo sapiens, 120 h, HCT116-MTAP wild-type (+/+) cells, 5-day treatment, IC50 value, read-out: Tumor cell 5-day relative growth inhibition (HCT116-MTAP+/+)
Quick note: give the figure in nM, leave out the unit.

Check out these entries, answers already filled in.
Cn1cc2c(n1)c(=O)n(-c1cccc3[nH]ncc13)c1cc(Cl)c(F)cc21	464
CN1CCN(c2ccc(Cn3cc4c(n3)c(=O)n(-c3cccc5[nH]ncc35)c3cc(Cl)c(F)cc43)cn2)CC1	5240

Give reported IC50 value for Cc1n[nH]c2cccc(-n3c(=O)c4nn(C)cc4c4ccc(Cl)cc43)c12 875

###

# measurement target: MAT2A recombinant protein (Homo sapiens, UniProt P31153)
# Sequence (P31153 whole entry): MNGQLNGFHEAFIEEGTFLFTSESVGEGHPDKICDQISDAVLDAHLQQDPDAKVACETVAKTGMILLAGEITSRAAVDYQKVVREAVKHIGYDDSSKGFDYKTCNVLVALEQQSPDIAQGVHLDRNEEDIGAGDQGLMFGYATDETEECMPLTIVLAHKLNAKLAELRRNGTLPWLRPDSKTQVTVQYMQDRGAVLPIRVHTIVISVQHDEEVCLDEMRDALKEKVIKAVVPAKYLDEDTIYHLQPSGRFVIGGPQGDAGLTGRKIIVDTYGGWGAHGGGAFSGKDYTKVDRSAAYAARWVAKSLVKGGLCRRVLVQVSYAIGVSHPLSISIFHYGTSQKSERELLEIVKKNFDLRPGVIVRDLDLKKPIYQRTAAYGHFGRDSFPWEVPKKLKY
# protocol description: MAT2A inhibitory activity (malachite green colorimetric enzyme assay)
# Type: biochemical
# measurement parameters: read-out: MAT2A Inhibition
Measured IC50 of individual entries
Quick note: give the figure in nM, leave out the unit.

Check out these entries, answers already filled in.
Cn1cc2c(n1)c(=O)n(-c1cccc3[nH]nc(Br)c13)c1cc(Cl)ccc21	39
Cn1cc2c(n1)c(=O)n(-c1ccccc1)c1nc(C(F)(F)F)ccc21	24.3
Cc1ncccc1-n1c(=O)c2nn(C3CC3)cc2c2ccc(Cl)cc21	30.9

Consider now this further compound.
Give reported IC50 value for Cc1n[nH]c2cccc(-n3c(=O)c4nn(C)cc4c4ccc(Cl)cc43)c12 83

###

# Test system: SDMA in HCT116-MTAP-knockout cell line
# protocol description: Cell symmetric dimethylarginine (SDMA) test, In-cell Western, HCT116-MTAP-knockout
# Format: cell-based
# measurement parameters: Homo sapiens, 96 h, IC50 score class, read-out: Cell 96 h SDMA Inhibition (HCT116-MTAP−/−) (score)
pIC50: −log10 of the molar value.
Measured pIC50 of individual entries

CCn1cc2c(n1)c(=O)n(-c1cncc(F)c1)c1cc(Cl)ccc21	5.52 to 6.00
Cn1cc2c(n1)c(=O)n(Cc1cn[nH]c1)c1cc(Cl)ccc21	< 5.52
O=c1c2nn(CC3CC3)cc2c2ccc(C(F)(F)F)nc2n1-c1cccnc1	> 6.70

Give reported pIC50 value for O=c1c2nn(C(F)F)cc2c2cc(F)c(C3CC3)nc2n1-c1cccnc1C1CC1 > 6.70

Give reported pIC50 value for Cc1ncccc1-n1c(=O)c2nn(C3CC3)cc2c2ccc(C(F)(F)F)nc21 > 6.70

Give reported pIC50 value for Cn1cc2c(n1)c(=O)n(-c1cccc3[nH]nc(Cl)c13)c1cc(Cl)c(F)cc21 > 6.70
